system: OVCAR-5 ovarian; assay: NCI-60 one-dose screen, 48 h; details: 10 µM unless noted
About 83,000 compounds went through this panel and 20% of them were active in at least one assay; those are over-represented in the sample as a whole. Calls of active or inactive are those of the source. How the source made its calls: active means growth percent below 10; inactive means the rest.
The reply should name one outcome from true for active, false for inactive

In: Fill in: this test's call for `C=C1C(=O)O[C@H]2[C@H]1CC/C(COC(=O)/C=C/C(=O)NCc1ccc(Cn3c(=O)sn(-c4ccccc4)c3=O)cc1)=C\CC[C@@]1(C)O[C@@H]21` is ___
Out: false

In: Fill in: this test's call for `CN1CCN(C(=O)[C@]23CCC(C)(C)C[C@@H]2C2=CC[C@@H]4[C@@]5(C)Cc6c([nH]c7ccccc67)C(C)(C)[C@@H]5CC[C@@]4(C)[C@]2(C)CC3)CC1` is ___
Out: false

In: Fill in: this test's call for `CSc1ncc(C)c(Nc2ccc(Cl)cc2)n1` is ___
Out: false

In: Fill in: this test's call for `CC1(C)CC(=O)c2c(ccc(C(=O)C[C@H](N)CO)c2N)O1` is ___
Out: false

In: Fill in: this test's call for `CCCN1CCN(c2ccc3nc(-c4ccc5nc(-c6cc(OC)c(OC)c(OC)c6)[nH]c5c4)[nH]c3c2)CC1` is ___
Out: false

In: Fill in: this test's call for `Cc1ccccc1NC(=O)CN(C)C` is ___
Out: false

In: Fill in: this test's call for `CC(C)c1ccc(NC(=O)Cc2ccc(Nc3ncnc4cc(-c5cnn(CCN(C)C)c5)ccc34)cc2)cc1` is ___
Out: true

In: Fill in: this test's call for `O=C1c2ccccc2C(=O)c2cc(Cn3cc[n+](Cc4ccc5ccccc5c4)c3)ccc21` is ___
Out: false

In: Fill in: this test's call for `N#Cc1c(-c2ccc(C(F)(F)F)cc2)cc(N2CC(O)C2)n2c1nc1ccccc12` is ___
Out: false

---

system: MCF7 breast; assay: NCI-60 one-dose screen, 48 h; details: 10 µM unless noted
This is part of a sample that, as a whole, favours compounds with a hit. Of some 83,000 tested, about 20% had one in any assay. Calls of active or inactive are those of the source. How the source made its calls: active means growth percent below 10; inactive means the rest.
The reply should name one outcome from 1 (yes) = active, 0 (no) = inactive

In: Fill in: this test's call for `COc1ccc(CN2C(=O)/C(=C\c3cc(OC)c(OC)c(OC)c3)c3ccccc32)cc1` is ___
Out: 1 (yes)

In: Fill in: this test's call for `COc1cc(-c2cc(-c3ccc(Nc4nc(Nc5ccccc5)nc(Nc5ccc(Cl)cc5)n4)cc3)nc(N)n2)cc(OC)c1OC` is ___
Out: 0 (no)

In: Fill in: this test's call for `Cc1[nH]c(-c2nc3ccccc3[nH]2)c(C)c1C(=O)N1CCc2sccc2C1` is ___
Out: 0 (no)

In: Fill in: this test's call for O=C1CCC(N2C(=O)c3cccc(NCCCC4CCN(CCNC(=O)c5cc6c(o5)C(=O)c5ccccc5C6=O)CC4)c3C2=O)C(=O)N1 (centres undefined) is ___
Out: 1 (yes)

---

system: SN12C renal; assay: NCI-60 one-dose screen, 48 h; details: 10 µM unless noted
Compounds without any hit were thinned out: in the full panel of roughly 83,000, 20% have a hit. Active and inactive are the calls of the source. The calls were made as follows: active = growth percent below 10; inactive = the rest.
The reply should name one outcome from active, inactive

In: Fill in: this test's call for `CCOC(=O)c1sc2ccc(NCc3nc[nH]c3C)cc2c1NC(=O)c1cc(OC)c(OC)c(OC)c1` is ___
Out: inactive

In: Fill in: this test's call for `COC(=O)Nc1nc2ccc(C(=O)C3CC3)cc2[nH]1` is ___
Out: inactive

In: Fill in: this test's call for `N=C(N)c1ccc(-c2ccc(-c3ccc(Cl)c(Cl)c3)o2)cc1` is ___
Out: active

In: Fill in: this test's call for `C=C1C(=O)O[C@H]2[C@H]1CC/C(COC(=O)/C=C\C(=O)NCc1ccc(Cn3c(=O)sn(CCCC)c3=O)cc1)=C\CC[C@@]1(C)O[C@@H]21` is ___
Out: active

In: Fill in: this test's call for CCOC(=O)C1C(=O)C=C(c2cnccn2)CC1c1ccc(OC)c(OC)c1 (stereo not given) is ___
Out: inactive

In: Fill in: this test's call for `Cc1ccc(Nc2ccc(Nc3ccc(C)cc3S(=O)(=O)O)c3c2C(=O)c2ccccc2C3=O)c(S(=O)(=O)O)c1` is ___
Out: inactive

In: Fill in: this test's call for CCC(=O)OC1=C(C)SC2=NC(c3ccc(Cl)c(Cl)c3)=CC(c3cc(OC)c(OC)c(OC)c3)N21 (stereo not given) is ___
Out: inactive

In: Fill in: this test's call for `Oc1[nH]c2ccccc2c1/C=c1/cc2c(c(-c3ccc(F)cc3)n1)=Nc1ccccc1-2` is ___
Out: active

In: Fill in: this test's call for `Cc1cc(=O)[nH]c(N/N=C/c2cc(Br)ccc2O)n1` is ___
Out: inactive

In: Fill in: this test's call for `CCNCCNc1cc(-c2ccc(C(F)(F)F)cc2)c(C#N)c2nc3cc(Cl)c(Cl)cc3n12` is ___
Out: active

In: Fill in: this test's call for `N#Cc1cnn2c(-c3ccc(Cl)cc3)nc(NC3CC3)nc12` is ___
Out: inactive

In: Fill in: this test's call for `CCNCCNc1cc(-c2ccc(F)cc2)c(C#N)c2nc3ccccc3n12` is ___
Out: inactive

In: Fill in: this test's call for `CC1(C)CC(=O)c2c(ccc(C(=O)C[C@H](N)CO)c2N)O1` is ___
Out: inactive

In: Fill in: this test's call for `CCN(CCO)CC(=O)c1cc(Cl)cc(Cl)c1Cl` is ___
Out: inactive

In: Fill in: this test's call for `COc1ccc(-c2cc(-c3cc(OC)ccc3O)[nH]c(=O)c2C#N)cc1` is ___
Out: inactive

In: Fill in: this test's call for O=C(c1ccccc1)c1ccc(N2C(=O)C3C4c5ccccc5C(/C=C/C(=O)c5ccccn5)(c5ccccc54)C3C2=O)cc1 (stereo not given) is ___
Out: inactive

In: Fill in: this test's call for `CN(C)CCOC(=O)Nc1ccc(Cl)cc1` is ___
Out: inactive

In: Fill in: this test's call for `CNC1(C#N)CCN(Cc2ccccc2)CC1` is ___
Out: inactive

In: Fill in: this test's call for `COc1ccc(-c2cc(-c3cc(OC)ccc3OC)[nH]c(=O)c2C#N)cc1` is ___
Out: inactive

In: Fill in: this test's call for `COc1cc2c(cc1OC)-c1ccc3cc4c(cc3c1N(CCN(C)C)C2)OCO4` is ___
Out: active

In: Fill in: this test's call for `CCCc1cc(=O)oc2c3c(c4c(c12)OC(C)(C)C=C4)O[C@@H](C)[C@H](C)C3=O` is ___
Out: inactive

In: Fill in: this test's call for `CCN(CC)c1ccc(Nc2ccc(CC(=O)c3ccccc3)cc2)cc1` is ___
Out: inactive

In: Fill in: this test's call for `COc1ccc(/C=C2\COc3ccc(O)c(O)c3C2=O)c(OC)c1` is ___
Out: inactive

In: Fill in: this test's call for `C[C@@H]1C(=O)N(C[C@H](Cc2ccccc2)N(Cc2ccccc2)Cc2ccccc2)[C@]1(Cc1ccccc1)C(=O)OC(C)(C)C` is ___
Out: inactive

In: Fill in: this test's call for `NC(=S)c1csc(CCNC(=O)c2ccccc2)n1` is ___
Out: inactive

In: Fill in: this test's call for `c1ccc([P+](CCCc2n(Cc3ccc4ccccc4c3)c3ccccc3[n+]2Cc2ccc3ccccc3c2)(c2ccccc2)c2ccccc2)cc1` is ___
Out: inactive

In: Fill in: this test's call for `CS(=O)(=O)c1ccc(-c2nc3cc(Cl)ccc3n2CC(=O)NO)cc1` is ___
Out: inactive

In: Fill in: this test's call for `CN(C)c1ccc(/C=C2\C=C(c3ccccc3)N(CCc3ccccc3)C2=O)cc1` is ___
Out: inactive

In: Fill in: this test's call for `Cc1ccc(/C=C(\C#N)n2nnc3cc(Cl)c(Cl)cc32)cc1` is ___
Out: inactive

In: Fill in: this test's call for `O=C(CCc1nc(-c2cccc(Cl)c2)no1)Nc1ccccn1` is ___
Out: inactive

In: Fill in: this test's call for `CC(C)(O)c1cccc(F)c1` is ___
Out: inactive

In: Fill in: this test's call for `C/C(Cc1ccc(Cl)cc1)=C(/c1ccc(Cl)cc1)c1ccc(OCCN(C)C)cc1` is ___
Out: inactive

In: Fill in: this test's call for `COc1cc(/C=C/C(=O)c2ccc(Nc3nc(Nc4ccccc4)nc(Nc4ccc(Cl)cc4)n3)cc2)cc(OC)c1OC` is ___
Out: inactive

In: Fill in: this test's call for `C=CC(=O)N[C@@H](Cc1ccc(-c2cc(Cl)cc(Cl)c2)cc1)[C@@H](O)[C@H](O)C(=O)O` is ___
Out: inactive

In: Fill in: this test's call for `CC1(C)N=C(N)N=C(N)N1c1cccc(CN)c1` is ___
Out: inactive

In: Fill in: this test's call for `COc1cc2oc(-c3cccc(C(=O)Nc4ccc(C#N)cc4)c3)cc(=O)c2c(O)c1OC` is ___
Out: inactive

In: Fill in: this test's call for O=C1Nc2ccccc2SC1c1ccccc1Cl (stereo not given) is ___
Out: inactive

In: Fill in: this test's call for `O[C@H]1CO[C@H]2[C@@H]1OC[C@@H]2Oc1ccc(Nc2ccnc(Nc3ccc(O[C@H]4CO[C@H]5[C@@H]4OC[C@@H]5O)c(Cl)c3)n2)cc1Cl` is ___
Out: active

In: Fill in: this test's call for `CCCCCCCSc1ccc(C(=O)O)cc1` is ___
Out: inactive

In: Fill in: this test's call for `O=C(NCc1cccnc1)c1cc(-c2csc3c(=O)cc(N4CCOCC4)oc23)cc2c1OCCO2` is ___
Out: inactive
